# Tested on: steroid metabolism in MCF-7 cells
# Assay remarks: Inhibition of steroid metabolism by RES in MCF-7 cells (LC–HRMS)
# Condition: MCF-7, 5 μM RES
# Procedure: Briefly, cartridges were preconditioned with 2 × 1.0 ml acetonitrile and 3 × 1.0 ml ammonium acetate buffer (10 mM, pH = 5.0), and the samples were loaded onto the columns. […] LC was performed with an UltiMate 3000 RSLC-series system coupled to a maXis HD ESI-Qq-TOF mass spectrometer (Bruker Corporation, Bremen, Germany). […] In the range of m/z 150–500, full-scan mass spectra were recorded. […]
Reported property: Vmax

{"Compound": "C[C@]12CC[C@@H]3c4ccc(OS(=O)(=O)O)cc4CC[C@H]3[C@@H]1CCC2=O [E1-S, estrone-3-O-sulfate]", "Reported property": "Vmax", "Endpoint result": "4.51 ± 0.33^∗ fmol/10^6 cells/h"}
{"Compound": "C[C@]12CC[C@@H]3c4ccc(OS(=O)(=O)O)cc4CC[C@H]3[C@@H]1CC[C@@H]2O [E2-S, 17β-estradiol-3-O-sulfate]", "Reported property": "Vmax", "Endpoint result": "6.64 ± 0.58^∗ fmol/10^6 cells/h"}
{"Compound": "C[C@]12CC[C@@H]3c4ccc(O)cc4CC[C@H]3[C@@H]1CC[C@@H]2O [E2, 17β-estradiol]", "Reported property": "Vmax", "Endpoint result": "816.4 ± 76.6^∗ fmol/10^6 cells/h"}

Just for reference, paper PMC6048268 is where these values come from.
